B1: Far upstream element-binding protein 3, residues 75 to 150; numbered along this chain, Q96I24 (parent)
chain: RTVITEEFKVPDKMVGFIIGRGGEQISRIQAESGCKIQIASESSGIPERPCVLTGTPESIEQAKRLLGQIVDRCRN

Variants of: B1
assay_name: abundance fitness (aPCA) (normalised: wild type 0, dead -1); higher = more abundant; growth selection in yeast, the domain comes from the species named
experimental_conditions: Homo sapiens
Class assignment keyed on abundance fitness, ranges low: < -0.9; middle: ≥ -0.9 and < -0.07; high: ≥ -0.07

{"query_sequence": "RTVITEEFKVPDKMVGFIIGRGGEQISRIQAESGCKIQIASESSGIPERPCVLTGTPESIEQPKRLLGQIVDRCRN [A63P]", "label_class": "low"}
{"query_sequence": "RTVITEEFKVPDKMVGFIIGRGGEQISRIQAESGCKIQIASESSGEPERPCVLTGTPESIEQAKRLLGQIVDRCRN [I46E]", "label_class": "high"}
{"query_sequence": "RTVITEEFKVPDKMVGFIIGRGGEQISRIQAESGCKIQIASESSGIPESPCVLTGTPESIEQAKRLLGQIVDRCRN [R49S]", "label_class": "middle"}
{"query_sequence": "RLVITEEFKVPDKMVGFIIGRGGEQISRIQAESGCKIQIASESSGIPERPCVLTGTPESIEQAKRLLGQIVDRCRN [T2L]", "label_class": "high"}
{"query_sequence": "RTVITEEFKVPDKMVGFIIGRGGEQISRIQAESGCKIQIASESSGIPERPCVLTFTPESIEQAKRLLGQIVDRCRN [G55F]", "label_class": "low"}
{"query_sequence": "RTVITEEFKVPDKMVGFIIGRGGEQISRIQAESGCKIQIASESSGIPYRPCVLTGTPESIEQAKRLLGQIVDRCRN [E48Y]", "label_class": "high"}
{"query_sequence": "RTVITEEFKVPDKMVGFIIGRGGEQISRIQAESGCKIQIASESSGIPERPCVLTGTPEGIEQAKRLLGQIVDRCRN [S59G]", "label_class": "high"}
{"query_sequence": "RTVITEEFKVPDKMVGFIIGRGGEQILRIQAESGCKIQIASESSGIPERPCVLTGTPESIEQAKRLLGQIVDRCRN [S27L]", "label_class": "middle"}
{"query_sequence": "RTVITEEFKVPDKMVGFIIGRGGEQISRIQAESGCKIQIASESSGIPIRPCVLTGTPESIEQAKRLLGQIVDRCRN [E48I]", "label_class": "middle"}
{"query_sequence": "RTVITEEFKVPDKMVGFIIGRGGEQISRIQAESGCKIQIASESSGIPERPCVWTGTPESIEQAKRLLGQIVDRCRN [L53W]", "label_class": "low"}

Values compiled from the Human Domainome abundance scans (Beltran et al. 2025).
